Biological target: Acetylcholinesterase (AChE, EC 3.1.1.7) (Electrophorus electricus)
Construct: purchased Sigma-Aldrich
Sequence (O42275 24-633): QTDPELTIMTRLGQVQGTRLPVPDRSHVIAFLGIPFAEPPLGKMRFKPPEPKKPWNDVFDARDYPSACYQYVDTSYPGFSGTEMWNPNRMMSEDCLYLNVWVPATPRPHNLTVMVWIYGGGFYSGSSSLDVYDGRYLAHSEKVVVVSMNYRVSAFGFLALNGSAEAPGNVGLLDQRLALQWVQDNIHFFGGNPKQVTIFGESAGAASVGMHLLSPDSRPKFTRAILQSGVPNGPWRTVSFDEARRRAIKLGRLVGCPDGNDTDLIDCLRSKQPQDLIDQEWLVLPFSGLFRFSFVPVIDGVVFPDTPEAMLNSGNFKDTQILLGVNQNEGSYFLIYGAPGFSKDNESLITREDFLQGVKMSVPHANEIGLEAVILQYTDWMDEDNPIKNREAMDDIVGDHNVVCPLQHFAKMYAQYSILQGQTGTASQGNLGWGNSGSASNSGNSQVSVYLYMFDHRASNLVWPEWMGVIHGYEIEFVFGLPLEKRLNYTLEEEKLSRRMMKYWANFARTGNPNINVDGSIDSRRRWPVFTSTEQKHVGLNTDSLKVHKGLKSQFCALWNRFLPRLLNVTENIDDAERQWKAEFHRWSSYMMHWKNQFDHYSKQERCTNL
Assay: Acetylcholinesterase inhibition, modified Ellman colorimetric method
Format: biochemical
Conditions: AChE inhibition, Ellman assay
Each entry gets not satisfied if its LOAEL stays under 0.2 mM, and satisfied if its LOAEL is 0.2 mM or above.

Asked: Could you please find out whether CC(C)NC(C)C(=O)c1cccc(Cl)c1 (racemic) has LOAEL that meets 0.2 mM or exceeds it?
Given back: not satisfied

Asked: Could you please find out whether CCNC(C)C(=O)c1ccccc1Cl (racemic) has LOAEL that meets 0.2 mM or exceeds it?
Given back: satisfied

Asked: Could you please find out whether CC(C(=O)c1ccc(Cl)cc1)N1CCCC1 (racemic) has LOAEL that meets 0.2 mM or exceeds it?
Given back: satisfied

Asked: Could you please find out whether CC(C)NC(C)C(=O)c1ccc(Cl)cc1 (racemic) has LOAEL that meets 0.2 mM or exceeds it?
Given back: satisfied

Asked: Could you please find out whether CCCCNC(C)C(=O)c1cccc(Cl)c1 (racemic) has LOAEL that meets 0.2 mM or exceeds it?
Given back: not satisfied

Asked: Could you please find out whether CC(C(=O)c1cccc(Cl)c1)N1CCCC1 (racemic) has LOAEL that meets 0.2 mM or exceeds it?
Given back: not satisfied

Asked: Could you please find out whether CC(NC(C)(C)C)C(=O)c1ccc(Cl)cc1 (racemic) has LOAEL that meets 0.2 mM or exceeds it?
Given back: satisfied

Asked: Could you please find out whether CCNC(C)C(=O)c1ccc(Cl)cc1 (racemic) has LOAEL that meets 0.2 mM or exceeds it?
Given back: satisfied

Asked: Could you please find out whether CCNC(C)C(=O)c1cccc(Cl)c1 (racemic) has LOAEL that meets 0.2 mM or exceeds it?
Given back: satisfied

Asked: Could you please find out whether CC(C(=O)c1ccccc1Cl)N1CCCC1 (racemic) has LOAEL that meets 0.2 mM or exceeds it?
Given back: not satisfied

----------
Molecular target: Acetylcholinesterase (AChE, EC 3.1.1.7) (Electrophorus electricus)
Construct: purchased Sigma-Aldrich
Experiment: Acetylcholinesterase inhibition, modified Ellman colorimetric method
Format: biochemical
Conditions: AChE inhibition, 0.03–2 mM, Ellman assay, Hill fit; read-out: IC50
measurement label: IC50 (µM)
Please respond with the number in µM and leave the unit unwritten.

Memo: CC(NC(C)(C)C)C(=O)c1cccc(Cl)c1 (racemic) , reported IC50: 1000

----------
Consider the following compounds and their measured CC50 at 24 h readings.
Test: MTT cytotoxicity assay on differentiated SH-SY5Y cells
Type: cell-based, human
Details: human, differentiated SH-SY5Y, 0.05–5 mM, MTT reduction assay, Hill fit, read-out: LC50
Please respond with the number in µM and leave the unit unwritten.

{"compound": "CNC(C)C(=O)c1ccc(C)cc1 (centres unmarked) [Mephedrone (M), Mephedrone, reference compound]", "units of measure": "µM", "CC50 at 24 h": 2100}
{"compound": "CCN(CC)C(C)C(=O)c1ccc(Cl)cc1 (racemic)", "units of measure": "µM", "CC50 at 24 h": 1000}
{"compound": "CC(C(=O)c1cccc(Cl)c1)N1CCCC1 (racemic)", "units of measure": "µM", "CC50 at 24 h": 2500}

Memo: CC(C(=O)c1cccc(Cl)c1)N(C)C (racemic) , reported CC50 at 24 h: 1800

Memo: CC(NC(C)(C)C)C(=O)c1ccc(Cl)cc1 (racemic) , reported CC50 at 24 h: 1300

Memo: CCNC(C)C(=O)c1ccc(Cl)cc1 (racemic) , reported CC50 at 24 h: 1300

Memo: CNC(C)C(=O)c1ccccc1Cl (racemic) , reported CC50 at 24 h: 1700

Memo: CCNC(C)C(=O)c1ccccc1Cl (racemic) , reported CC50 at 24 h: 1600

Memo: CC(C(=O)c1ccccc1Cl)N1CCCC1 (racemic) , reported CC50 at 24 h: 1600

Memo: CCNC(C)C(=O)c1cccc(Cl)c1 (racemic) , reported CC50 at 24 h: 1300

Memo: CC(C)NC(C)C(=O)c1cccc(Cl)c1 (racemic) , reported CC50 at 24 h: 1600
